target: Poly [ADP-ribose] polymerase 2 (Homo sapiens, UniProt Q9UGN5); assay: Inhibition of recombinant human PARP2 using NAD+ as substrate incubated for 1 hr by ELISA
Sequence (Q9UGN5 whole entry): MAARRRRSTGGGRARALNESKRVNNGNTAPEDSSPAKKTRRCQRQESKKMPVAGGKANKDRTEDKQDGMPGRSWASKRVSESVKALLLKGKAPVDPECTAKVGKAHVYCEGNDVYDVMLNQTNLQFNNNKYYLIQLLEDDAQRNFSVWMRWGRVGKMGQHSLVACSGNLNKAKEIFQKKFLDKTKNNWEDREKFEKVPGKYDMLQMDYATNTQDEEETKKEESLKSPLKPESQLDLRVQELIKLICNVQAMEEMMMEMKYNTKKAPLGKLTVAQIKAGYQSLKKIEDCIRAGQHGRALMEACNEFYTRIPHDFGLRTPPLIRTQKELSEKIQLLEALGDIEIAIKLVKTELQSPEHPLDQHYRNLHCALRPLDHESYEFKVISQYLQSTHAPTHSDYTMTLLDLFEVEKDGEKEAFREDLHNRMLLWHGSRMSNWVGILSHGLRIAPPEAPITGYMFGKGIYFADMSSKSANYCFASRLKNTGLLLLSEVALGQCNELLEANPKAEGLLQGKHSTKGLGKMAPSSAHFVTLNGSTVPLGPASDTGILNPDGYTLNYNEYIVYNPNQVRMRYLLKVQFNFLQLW
RESULT TYPE: pIC50
Scale: pIC50 equals -log10([C]), with [C] in mol/L.

Before answering, review these 3 worked examples.
CCCN1CCN(C(=O)c2cc(Cn3c(=O)[nH]c(=O)c4ccccc43)ccc2F)C[C@H]1CC    7.30
CC(C)C(=O)N1CCN(C(=O)c2cc(Cn3c(=O)[nH]c(=O)c4ccccc43)ccc2F)C[C@@H]1C    8.63
CC[C@H]1CN(C(=O)c2cc(Cn3c(=O)[nH]c(=O)c4ccccc43)ccc2F)CCN1    7.61

Quick one: pIC50 for CC[C@@H]1CN(C(=O)c2cc(Cn3c(=O)[nH]c(=O)c4ccccc43)ccc2F)CCN1C(C)C ?
7.44

###

assay: Half life in Beagle dog at 0.4 mg/kg, iv measured upto 24 hrs by LC-MS/MS analysis; format: ADME, organism-based, Canis lupus familiaris; settings: in vivo
RESULT TYPE: half-life (h)
Only the number, expressed in h, is required.

Quick one: half-life for CC[C@@H]1CN(C(=O)c2cc(Cn3c(=O)[nH]c(=O)c4ccccc43)ccc2F)CCN1CC ?
1.37

###

target: UniProt Q9UGN5; assay: Inhibition of recombinant human PARP2 using NAD+ as substrate incubated for 1 hr by ELISA
# log10 of IC50 values compiled below
Values are log10 of IC50 in nM.

Before answering, review these 5 worked examples.
CCCN1CCN(C(=O)c2cc(Cn3c(=O)[nH]c(=O)c4ccccc43)ccc2F)C[C@H]1C    0.84
C/C=C/CN1CCN(C(=O)c2cc(Cn3c(=O)[nH]c(=O)c4ccccc43)ccc2F)C[C@@H]1C    1.17
CC[C@@H]1CN(C(=O)c2cc(Cn3c(=O)[nH]c(=O)c4ccccc43)ccc2F)CCN1C(=O)C(F)(F)F    0.86
CC(C)=CCN1CCN(C(=O)c2cc(Cn3c(=O)[nH]c(=O)c4ccccc43)ccc2F)C[C@H]1C    0.88
CC(C)CN1CCN(C(=O)c2cc(Cn3c(=O)[nH]c(=O)c4ccccc43)ccc2F)C[C@H]1C    0.17

Please look at the following compound next.
Quick one: log10 of IC50 for CC[C@H]1CN(C(=O)c2cc(Cn3c(=O)[nH]c(=O)c4ccccc43)ccc2F)CCN1CC1CC1 ?
1.63

###

experiment: Tmax in Beagle dog at 20 mg/kg, po measured upto 24 hrs by LC-MS/MS analysis; type: ADME, organism-based, Canis lupus familiaris; settings: in vivo
RESULT TYPE: Tmax (min)
Only the number, expressed in min, is required.

Quick one: Tmax for CC[C@@H]1CN(C(=O)c2cc(Cn3c(=O)[nH]c(=O)c4ccccc43)ccc2F)CCN1CC ?
30

###

biological target: Poly [ADP-ribose] polymerase 2 (Homo sapiens); assay: Inhibition of recombinant human PARP2 using NAD+ as substrate incubated for 1 hr by ELISA
RESULT TYPE: IC50 (µM)
Only the number, expressed in µM, is required.

Quick one: IC50 for CC(C)=CCN1CCN(C(=O)c2cc(Cn3c(=O)[nH]c(=O)c4ccccc43)ccc2F)C[C@@H]1C ?
0.0128

Then this molecule: CC[C@@H]1CN(C(=O)c2cc(Cn3c(=O)[nH]c(=O)c4ccccc43)ccc2F)CCN1CC
0.0231

Then this molecule: CC[C@@H]1CN(C(=O)c2cc(Cn3c(=O)[nH]c(=O)c4ccccc43)ccc2F)CCN1
0.0333

Then this molecule: CC[C@@H]1CN(C(=O)c2cc(Cn3c(=O)[nH]c(=O)c4ccccc43)ccc2F)CCN1CC1CC1
0.0156
